Assay explanation: Trough plasma concentrations of Compound A in the human clinical study
Type: in vivo
Details: human, plasma, oral, 50 mg, 50 mg QD; 2 week; human plasma; read-out: Trough Plasma Concentrations, Mean (SD)
Procedure: Compound A was evaluated in a multicenter, randomized, double-blind, placebo-controlled, parallel-group study in subjects with active rheumatoid arthritis. […] In the human clinical study described in Example 3, blood samples were collected from subjects prior to dosing at weeks 2, 4, 8, and 12 for the quantification of plasma Compound A levels.
Readout label: concentration at 2 week (ng/mL)
Write down the numeric answer in ng/mL and omit the unit.

What concentration at 2 week value was documented for this molecule, C[C@@H](C(=O)N(C)c1ccc2cc(-c3n[nH]c4c3CCC(C)(C)C4)[nH]c2c1)N1CCOCC1 [Compound A] ?
134

====

Assay explanation: Trough plasma concentrations of Compound A in the human clinical study
Format: in vivo
Details: human, plasma, oral, 200 mg, 200 mg QD; 12 week; human plasma; BLQ (<2.00 ng/mL) set to 0; read-out: Trough Plasma Concentrations, Min-Max
Readout label: concentration at 12 week

What concentration at 12 week value was documented for this compound, C[C@@H](C(=O)N(C)c1ccc2cc(-c3n[nH]c4c3CCC(C)(C)C4)[nH]c2c1)N1CCOCC1 [Compound A] ?
0 to 1170 ng/mL

====

Assay explanation: Trough plasma concentrations of Compound A in the human clinical study
Assay type: in vivo
Details: human, plasma, oral, 100 mg, 100 mg QD; 2 week; human plasma; BLQ (<2.00 ng/mL) set to 0; read-out: Trough Plasma Concentrations, Min-Max
Readout label: concentration at 2 week

What concentration at 2 week value was documented for this compound, C[C@@H](C(=O)N(C)c1ccc2cc(-c3n[nH]c4c3CCC(C)(C)C4)[nH]c2c1)N1CCOCC1 [Compound A] ?
0 to 825 ng/mL

====

Assay explanation: Trough plasma concentrations of Compound A in the human clinical study
Type: in vivo
Details: human, plasma, oral, 100 mg, 100 mg QD; 4 week; human plasma; read-out: Trough Plasma Concentrations, Median
Readout label: concentration at 4 week (ng/mL)
Write down the numeric answer in ng/mL and omit the unit.

What concentration at 4 week value was documented for this molecule, C[C@@H](C(=O)N(C)c1ccc2cc(-c3n[nH]c4c3CCC(C)(C)C4)[nH]c2c1)N1CCOCC1 ?
215
